These data points were gathered from patent US8754054B2.

Tested on: S. aureus 1137
Assay: Antibacterial activity in vitro, NCCLS dilution method (Table 10)
Assay type: cell-based
Details: S. aureus 1137, Gram +, MRSA
TEST READOUT: antibacterial activity (dilution susceptibility test)

• CN[C@H](CC(C)C)C(=O)N[C@H]1C(=O)N[C@@H](CC(N)=O)C(=O)N[C@H]2C(=O)N[C@H]3C(=O)N[C@H](C(=O)N[C@H](C(=O)O)c4cc(O)cc(O)c4-c4cc3ccc4O)[C@H](O)c3ccc(c(Cl)c3)Oc3cc2cc(c3O[C@@H]2O[C@H](CO)[C@@H](O)[C@H](O)[C@H]2O[C@H]2C[C@](C)(N)[C@H](O)[C@H](C)O2)Oc2ccc(cc2Cl)[C@H]1O = 1
• CC(=O)NC[C@H]1CN(c2ccc(N3CCOCC3)c(F)c2)C(=O)O1 = 4

* * *

Test system: H. parainfluenzae 2319 (ATCC 7901)
Test: Antibacterial activity in vitro, NCCLS dilution method (Table 10)
Assay type: cell-based
Conditions: Gram −
TEST READOUT: antibacterial activity (dilution susceptibility test)

* COC(=O)c1c(C)cc2c(c1O)[C@]1(O)C(=O)c3cc4c(c(O)c3C(=O)[C@]1(OC)[C@H](O)C2)C(=O)C=C(N[C@H]1O[C@@H](C)[C@H](OC)[C@@H](O)[C@H]1OC)C4=O | 8
* CN[C@H](CC(C)C)C(=O)N[C@H]1C(=O)N[C@@H](CC(N)=O)C(=O)N[C@H]2C(=O)N[C@H]3C(=O)N[C@H](C(=O)N[C@H](C(=O)O)c4cc(O)cc(O)c4-c4cc3ccc4O)[C@H](O)c3ccc(c(Cl)c3)Oc3cc2cc(c3O[C@@H]2O[C@H](CO)[C@@H](O)[C@H](O)[C@H]2O[C@H]2C[C@](C)(N)[C@H](O)[C@H](C)O2)Oc2ccc(cc2Cl)[C@H]1O | 64
* C[C@@H](O)[C@H]1C(=O)N2C(C(=O)O)=C(S[C@@H]3CN[C@H](C(=O)N(C)C)C3)[C@H](C)[C@H]12 | 0.03
* CC(=O)NC[C@H]1CN(c2ccc(N3CCOCC3)c(F)c2)C(=O)O1 | 16

* * *

Tested on: MRSA 43300
Assay: Antibacterial activity, NCCLS dilution method (Table 9)
Format: cell-based, S. aureus
Conditions: Staphylococcus aureus, MRSA, MRSA 43300; dilution method; labels marked a tested as a mixture of diastereomers; read-out: MRSA 43300 MIC
Entries and their measured MIC follow.
TEST READOUT: MIC (µg/mL)

* COCC/N=C1\C=C(N[C@H]2O[C@@H](C)[C@H](OC)[C@@H](O)[C@H]2OC)C(=O)c2cc3c(c(O)c21)C(=O)[C@]1(OC)[C@H](O)Cc2cc(C)c(C(=O)OC)c(O)c2[C@]1(O)C3=O | 1
* CO[C@@H]1[C@@H](O)[C@@H](OC)C(NC2=CC(=O)c3c(cc4c(c3O)C(=O)[C@]3(OC)[C@H](O)Cc5cc(C)c(C(=O)NCc6ccc(F)cc6)c(O)c5[C@]3(O)C4=O)C2=O)O[C@H]1C (mixture of isomers) | 0.5
* CO[C@@H]1[C@@H](O)[C@@H](OC)C(NC2=CC(=O)c3c(cc4c(c3O)C(=O)[C@]3(OC)[C@H](O)Cc5cc(C)c(C(=O)OCc6ccccc6)c(O)c5[C@]3(O)C4=O)C2=O)O[C@H]1C (mixture of isomers) | 0.25
* COC(=O)c1c(C)c(Br)c2c(c1O)[C@]1(O)C(=O)c3cc4c(c(O)c3C(=O)[C@]1(OC)[C@H](O)C2)C(=O)C=C(N[C@H]1O[C@@H](C)[C@H](OC)[C@@H](O)[C@H]1OC)C4=O | 1
